All figures here come from ChEMBL document CHEMBL1152647.

assay explanation: Cytotoxicity against human 184B5 cells after 48 hrs by SRB assay
Format: cell-based
Decision: GI50 at 48 h beneath 80 µM gives Criterion met; GI50 at 48 h meeting or exceeding 80 µM gives Criterion not met.

> print(dat)
                           smiles.structure           category
1  CCN(CC)CN1C(=O)/C(=N\c2nc3ccc(C)cc3s2)c2ccccc21      Criterion met
2  O=C1C(=O)N(CN(c2ccccc2)c2ccccc2)c2cccc(Br)c21  Criterion not met
3  CCN(CC)CN1C(=O)/C(=N\c2nc3ccc(C)cc3s2)c2c(Cl)cccc21  Criterion not met

GI50 at 48 h strictly < 80 µM for this compound? Cc1ccc2nc(/N=C3\C(=O)N(CN(c4ccccc4)c4ccccc4)c4cccc(Br)c43)sc2c1
Criterion met

###

assay explanation: Cytotoxicity against human 184B5 cells after 48 hrs by SRB assay
Format: cell-based
readout label: GI50 at 48 h (µM)
Numeric answer only, unit µM assumed.

Some molecules with known GI50 at 48 h results, for comparison:
> print(dat)
                                   molecule  readout.label  unit.label  test.result
1  CCN(CC)CN1C(=O)/C(=N\c2nc3ccc(C)cc3s2)c2c(Br)cccc21   GI50 at 48 h          µM         34.3
2  O=C1C(=O)N(CN(c2ccccc2)c2ccccc2)c2cccc(Cl)c21   GI50 at 48 h          µM         96.8
3         CCN(CC)CN1C(=O)C(=O)c2c(Cl)cccc21   GI50 at 48 h          µM         22.5
4  Cc1ccc2nc(/N=C3\C(=O)N(CN(C)C)c4ccccc43)sc2c1   GI50 at 48 h          µM         15.6
5  CCN(CC)CCCC(C)Nc1ccnc2cc(Cl)ccc12 (stereo unspecified) [CHLOROQUINE]   GI50 at 48 h          µM         76.1

Give the measured GI50 at 48 h of O=C1C(=O)N(CN2CCOCC2)c2ccccc21 .
78.7

Next up: O=C1C(=O)N(CN2CCCCC2)c2cccc(Cl)c21
93.7

Entry to check: Cc1ccc2nc(/N=C3\C(=O)N(CN4CCCCC4)c4cccc(Cl)c43)sc2c1
82.3

Also Cc1ccc2nc(/N=C3\C(=O)N(CN(C)C)c4cccc(Cl)c43)sc2c1 , if possible.
5.77

Field entry: Cc1ccc2nc(/N=C3\C(=O)N(CN4CCOCC4)c4ccccc43)sc2c1
30.6

Then CN(C)CN1C(=O)C(=O)c2c(Cl)cccc21 ?
130

###

assay explanation: Cytotoxicity against human 184B5 cells after 48 hrs by SRB assay
Assay type: cell-based
GI50 at 48 h: recorded values
The reply should contain only the number, in µM.

// solved cases for GI50 at 48 h follow
> print(dat)
                           smiles.structure  test.result
1  Cc1ccc2nc(/N=C3\C(=O)N(CN(c4ccccc4)c4ccccc4)c4ccccc43)sc2c1         27.2
2        O=C1C(=O)N(CN2CCOCC2)c2cccc(Br)c21         79.5
3  Cc1ccc2nc(/N=C3\C(=O)N(CN(c4ccccc4)c4ccccc4)c4cccc(Cl)c43)sc2c1         67.8
4  Cc1ccc2nc(/N=C3\C(=O)N(CN4CCOCC4)c4cccc(Br)c43)sc2c1         29.9
5            O=C1C(=O)N(CN2CCCCC2)c2ccccc21           68

Quick one: GI50 at 48 h for O=C1C(=O)N(CN2CCCCC2)c2cccc(Br)c21 ?
85.2

And Cc1ccc2nc(/N=C3\C(=O)N(CN4CCCCC4)c4cccc(Br)c43)sc2c1 ?
85.2

Next compound up: CCN(CC)CN1C(=O)C(=O)c2c(Br)cccc21
172

Thanks! And O=C1C(=O)N(CN(c2ccccc2)c2ccccc2)c2ccccc21 ?
33.7

And the next one, Cc1ccc2nc(/N=C3\C(=O)N(CN4CCOCC4)c4cccc(Cl)c43)sc2c1 ?
63.5

Now consider CCN(CC)CN1C(=O)C(=O)c2ccccc21 and answer again.
41.7

###

assay explanation: Cytotoxicity against human MCF10A cells after 48 hrs by SRB assay
Format: cell-based, MCF-10A
readout label: GI50 at 48 h
Number first, unit second.

Consider the reported GI50 at 48 h for these compounds:
> print(dat)
                           smiles.structure  readout.label  test.result
1  CCN(CC)CN1C(=O)/C(=N\c2nc3ccc(C)cc3s2)c2ccccc21   GI50 at 48 h      20.4 µM
2  Cc1ccc2nc(/N=C3\C(=O)N(CN4CCCCC4)c4ccccc43)sc2c1   GI50 at 48 h      38.9 µM

API: the following record is the query input.
Could you tell me which GI50 at 48 h is on file for CCN(CC)CN1C(=O)/C(=N\c2nc3ccc(C)cc3s2)c2c(Cl)cccc21 ?
43.9 µM

###

assay explanation: Cytotoxicity against human MCF10A cells after 48 hrs by SRB assay
Format: cell-based, MCF-10A
Friendly reminder: GI50 at 48 h below 70 µM is label 1, at or above is label 0.

Use these answered entries as a reference point.
> print(dat)
                           smiles.structure  category
1           CN(C)CN1C(=O)C(=O)c2c(Br)cccc21   label 1
2  Cc1ccc2nc(/N=C3\C(=O)N(CN4CCOCC4)c4ccccc43)sc2c1   label 1
3  O=C1C(=O)N(CN(c2ccccc2)c2ccccc2)c2ccccc21   label 0
4               CN(C)CN1C(=O)C(=O)c2ccccc21   label 0

In plain terms, does O=C1C(=O)N(CN2CCOCC2)c2cccc(Cl)c21 come in under 70 µM for GI50 at 48 h?
label 0

Another molecule to check: Cc1ccc2nc(/N=C3\C(=O)N(CN4CCOCC4)c4cccc(Br)c43)sc2c1
label 1

// next record CCN(CC)CN1C(=O)C(=O)c2c(Br)cccc21
label 0

Check O=C1C(=O)N(CN(c2ccccc2)c2ccccc2)c2cccc(Br)c21 too.
label 0

And the next one, Cc1ccc2nc(/N=C3\C(=O)N(CN(c4ccccc4)c4ccccc4)c4ccccc43)sc2c1 ?
label 1

Can you check O=C1C(=O)N(CN2CCCCC2)c2cccc(Br)c21 next?
label 1

// repeat for CCN(CC)CN1C(=O)C(=O)c2ccccc21 and report
label 0

// same read-out, input: Cc1ccc2nc(/N=C3\C(=O)N(CN4CCCCC4)c4cccc(Br)c43)sc2c1
label 1

CCN(CC)CN1C(=O)/C(=N\c2nc3ccc(C)cc3s2)c2c(Br)cccc21 , same question.
label 1

Please do the same for O=C1C(=O)N(CN(c2ccccc2)c2ccccc2)c2cccc(Cl)c21 as well.
label 0
